B1: FAM189A2 (parent)
chain: GSEAAVIPLDLGCTQVTQDGDIPN

variants of: B1; test: protein stability index of a GFP-peptide fusion (GPS, HEK-293T) (PSI 1-6); higher = more stable; settings: c terminus: a fixed tail appended;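 further: lentivirally expressed fusions sorted by FACS into six bins by GFP to DsRed ratio, PSI derived from sequencing read proportions per bin multiplied by bin number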
PROPERTY_NAME: protein stability index
// response body must contain only the number

1. C13G; 5.54

Provide one value: measured protein stability index of "S2F"
4.96

Give recorded protein stability index. "Q18G"
5.49

For the variant "L11Y" , report protein stability index.
5.7

For the variant "I22G" , give its reported protein stability index.
5.26

Write down protein stability index measured for item "D10Y"
4.39

Determine its reported protein stability index: "L9T"
5.5

Name the recorded protein stability index of the item "Q18C" in your answer.
5.27

Provide only the value of recorded protein stability index for "T14K"
5.46
